- measured-target: Human recombinant MMP-13 (Homo sapiens, UniProt P45452)
- Construct: made in house; host or cells: baculovirus / insect cells
- test-protocol: In vitro MMP inhibition, Ki determination (fluorogenic substrate II)
- Assay type: biochemical
- experimental-conditions: value in parentheses

{"smiles-structure": "COCCN1CCC(C(=O)NO)(S(=O)(=O)c2ccc(OCCCc3cccc(-c4ccc(F)cc4F)c3)cc2)CC1", "Ki": "0.98 nM"}
{"smiles-structure": "COCCN1CCC(C(=O)NO)(S(=O)(=O)c2ccc(OCCCc3cccc(-c4ccccc4F)c3)cc2)CC1", "Ki": "1.07 nM"}
{"smiles-structure": "CCN1CCC(C(=O)NO)(S(=O)(=O)c2ccc(OCCCc3cccc(-c4ccc(Cl)cc4)c3)cc2)CC1", "Ki": "3.96 nM"}
{"smiles-structure": "O=C(NO)C1(S(=O)(=O)c2ccc(OCCCc3cccc(-c4ccccc4O)c3)cc2)CCOCC1", "Ki": "3.21 nM"}
